target: T1, CD71 apical domain (human, UniProt P02786 189-383, limits assumed); experiment: solution ELISA screen, signal ratio to HSA control
T1 construct: domain: apical domain
T1 sequence (P02786 189-383 limits assumed): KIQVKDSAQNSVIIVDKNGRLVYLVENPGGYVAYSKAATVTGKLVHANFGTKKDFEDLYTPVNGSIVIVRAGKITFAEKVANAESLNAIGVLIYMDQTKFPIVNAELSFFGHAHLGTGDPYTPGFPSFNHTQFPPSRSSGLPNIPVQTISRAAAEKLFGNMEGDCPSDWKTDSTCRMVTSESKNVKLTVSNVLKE
Quantity measured: apical domain:HSA
Value and unit, in that order.

Short answer for SEQ ID NO 227 (designed binder, not shown: small tags and cut ends) MLPAPKNLVVSRVTEDSARLSWTAPDAAFDSFYIAYAEPRPDGEAIGLRVPGSERSYDLTGLKPGTEYSVLIHGVKGGLLSSPLSAIFTT : apical domain:HSA was 177 ratio

Short answer for SEQ ID NO 225 (designed binder, not shown: small tags and cut ends) MLPAPKNLVVSRVTEDSARLSWTAPDAAFDSFYIAYAEPRPDGEAILLQVPGSERSYDLTGLKPGTEYSVLIHGVKGGLLSSPLSASFTT : apical domain:HSA was 435 ratio

Short answer for SEQ ID NO 218 (designed binder, not shown: small tags and cut ends) MLPAPKNLVVSRVTEDSARLSWTAPDAAFDSFYIAYAEPRPDGEAIHLVVPGSERSYDLTGLKPGTEYSVLIHGVKGGLLSSPLSAIFTT : apical domain:HSA was 202 ratio

Short answer for SEQ ID NO 237 (designed binder, not shown: small tags and cut ends) MLPAPKNLVVSRVTEDSARLSWTAPDAAFDSFYIAYAEPRPDGEAIVLAVPGSERSYDLTGLKPGTEYSVLIHGVKGGLLSSPLYASFTT : apical domain:HSA was 253 ratio
